target: NAD-dependent protein deacetylase sirtuin-1 (Homo sapiens) (UniProt Q96EB6); experiment: Activation of SIRT1 (unknown origin) by mass spectrophotometric analysis
Sequence (Q96EB6 whole entry): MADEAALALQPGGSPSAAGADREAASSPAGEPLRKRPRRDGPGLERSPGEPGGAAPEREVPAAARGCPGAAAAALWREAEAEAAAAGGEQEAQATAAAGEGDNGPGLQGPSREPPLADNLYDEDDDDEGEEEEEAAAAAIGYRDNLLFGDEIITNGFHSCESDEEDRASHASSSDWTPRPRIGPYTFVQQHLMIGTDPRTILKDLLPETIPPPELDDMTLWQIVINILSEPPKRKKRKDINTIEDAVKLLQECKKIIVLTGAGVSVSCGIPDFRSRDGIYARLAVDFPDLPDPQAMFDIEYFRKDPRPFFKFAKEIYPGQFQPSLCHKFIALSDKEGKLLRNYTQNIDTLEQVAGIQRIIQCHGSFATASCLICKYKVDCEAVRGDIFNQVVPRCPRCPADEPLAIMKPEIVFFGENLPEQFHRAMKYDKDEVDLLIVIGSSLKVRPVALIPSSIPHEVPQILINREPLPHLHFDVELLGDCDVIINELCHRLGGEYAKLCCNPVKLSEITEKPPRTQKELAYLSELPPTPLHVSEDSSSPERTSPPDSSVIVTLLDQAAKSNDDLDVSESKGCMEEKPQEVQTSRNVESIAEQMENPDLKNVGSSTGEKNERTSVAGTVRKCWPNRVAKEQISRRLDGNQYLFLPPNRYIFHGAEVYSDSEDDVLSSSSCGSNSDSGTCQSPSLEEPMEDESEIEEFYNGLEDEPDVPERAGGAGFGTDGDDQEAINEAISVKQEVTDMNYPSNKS
Lab note - cut at 2 µM for EC150: Criterion met if strictly below, Criterion not met if not.

{"molecule": "Cn1nc(-c2cnc3ccccc3c2)c2cc(NCc3cc(F)ccc3S(C)(=O)=O)ccc21", "category label": "Criterion met"}
{"molecule": "Cn1nc(-c2ccc(C(=O)NCC3CCCO3)cc2)c2cc(NCc3cc(F)ccc3S(C)(=O)=O)ccc21 (stereo not drawn)", "category label": "Criterion met"}
{"molecule": "Cn1nc(-c2ccc(C(=O)NCCc3ccn[nH]3)cc2)c2cc(NCc3cc(F)ccc3S(C)(=O)=O)ccc21", "category label": "Criterion met"}
{"molecule": "CCCS(=O)(=O)c1ccccc1CNc1ccc2c(c1)c(-c1ccc(C(=O)N[C@H]3CC[C@H](O)CC3)cc1)nn2C", "category label": "Criterion not met"}
{"molecule": "Cn1nc(-c2cc3ccccc3s2)c2cc(NCc3cc(F)ccc3S(C)(=O)=O)ccc21", "category label": "Criterion met"}
{"molecule": "Cn1nc(-c2ccc(C(=O)N[C@H]3CC[C@H](O)CC3)cc2)c2cc(NCc3cc(F)c(F)cc3S(C)(=O)=O)ccc21", "category label": "Criterion met"}
{"molecule": "Cc1cc(S(C)(=O)=O)c(CNc2ccc3c(c2)c(-c2ccc(C(=O)N[C@H]4CC[C@H](O)CC4)cc2)nn3C)cc1F", "category label": "Criterion met"}
{"molecule": "CCS(=O)(=O)c1ccccc1CNc1ccc2c(c1)c(-c1ccc(C(=O)N[C@H]3CC[C@H](O)CC3)cc1)nn2C", "category label": "Criterion not met"}
{"molecule": "Cn1nc(-c2ccc3ccccc3c2)c2cc(NCc3cc(F)ccc3S(C)(=O)=O)ccc21", "category label": "Criterion not met"}
{"molecule": "COCCS(=O)(=O)c1ccccc1CNc1ccc2c(c1)c(-c1ccc(C(=O)N[C@H]3CC[C@H](O)CC3)cc1)nn2C", "category label": "Criterion not met"}
{"molecule": "CNC(=O)c1ccc(-c2nn(C)c3ccc(NCc4cc(F)ccc4S(C)(=O)=O)cc23)cc1", "category label": "Criterion not met"}
{"molecule": "Cc1cc(CNc2ccc3c(c2)c(-c2ccc(C(=O)N[C@H]4CC[C@H](O)CC4)cc2)nn3C)c(S(C)(=O)=O)cc1F", "category label": "Criterion not met"}
{"molecule": "Cn1nc(-c2ccc(C(=O)N[C@H]3CC[C@H](O)CC3)cc2)c2cc(NCc3cc(F)ccc3S(C)(=O)=O)ccc21", "category label": "Criterion met"}

Values from ChEMBL document CHEMBL4177597
